target: P. falciparum apicoplast DNA polymerase (Pf-apPOL) (Plasmodium falciparum, UniProt Q8ILY1); experiment: Fluorescence-based high-throughput DNA polymerase assay (molecular beacon), primary screen and dose-response; assay type: biochemical; settings: DRC-2; 180'; concentration 20;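 further: test concentration in µM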
Sequence (Q8ILY1 entry or part of it): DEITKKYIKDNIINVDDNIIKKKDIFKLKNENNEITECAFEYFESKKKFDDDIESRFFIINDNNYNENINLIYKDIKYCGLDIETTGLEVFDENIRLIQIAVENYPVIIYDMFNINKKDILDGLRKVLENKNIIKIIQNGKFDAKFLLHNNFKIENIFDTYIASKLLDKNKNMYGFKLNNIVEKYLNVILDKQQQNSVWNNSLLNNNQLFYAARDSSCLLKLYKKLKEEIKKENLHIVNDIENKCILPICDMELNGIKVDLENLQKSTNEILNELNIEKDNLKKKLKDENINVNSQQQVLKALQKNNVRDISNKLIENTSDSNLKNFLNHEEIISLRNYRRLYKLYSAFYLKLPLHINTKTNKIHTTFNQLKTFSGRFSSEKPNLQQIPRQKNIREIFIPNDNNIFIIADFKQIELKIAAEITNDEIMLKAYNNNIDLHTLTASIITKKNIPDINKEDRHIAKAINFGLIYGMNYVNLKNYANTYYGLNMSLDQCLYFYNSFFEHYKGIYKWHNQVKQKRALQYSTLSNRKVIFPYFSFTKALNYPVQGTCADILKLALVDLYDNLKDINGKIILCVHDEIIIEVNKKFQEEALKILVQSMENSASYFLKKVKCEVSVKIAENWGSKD
measurement name: % inhibition apPOL 180' (%)
Expressed in %, but write only the number.

                                   compound  readout_value
0  COc1cc(NC(=O)c2ccccc2)c(OC)cc1NC(=O)Cc1cccs1             61
1  CSC1=C(C#N)C(=C(C#N)C#N)NC(c2ccccc2)=N1 [Molecule 2, CSc1nc([nH]c(=C(C#N)C#N)c1C#N)c1ccccc1]             61
2           O=C1C(=Cc2ccccc2O)Oc2ccc(O)cc21             17
3            O=C(O)c1nc(-c2ccccc2)nc2c1OCO2             34
4  O=c1[nH]c2ccc([N+](=O)[O-])cc2c(-c2ccccc2)c1Sc1nc2ccccc2o1             26
5  CCCCSc1nnc2c(n1)OC(c1ccc([N+](=O)[O-])o1)Nc1ccccc1-2 (centres unmarked)             53
6  Cc1cccc(NC(=O)Cn2ccc3c(=O)[nH]ccc32)c1C [Molecule 11, O=C(Cn1ccc2c1cc[nH]c2=O)Nc1cccc(c1C)C]             69
7  COc1ccc(-c2cc3nc4c(c(=O)n3[nH]2)CCN(C(=O)CCc2ccccc2)C4)cc1             44

Prompt: // lookup % inhibition apPOL 180' for Cc1cc(C)c2c(c1)C1C=CCC1C(c1ccc(C(=O)O)cc1)N2 (centres unmarked)
Completion: 75

Prompt: // lookup % inhibition apPOL 180' for O=[N+]([O-])c1ccc(/C=C/c2ccc3ccccc3n2)o1
Completion: 71

Prompt: // lookup % inhibition apPOL 180' for CCOc1ccc(/C=C2\N=C(c3cc([N+](=O)[O-])cc([N+](=O)[O-])c3)OC2=O)cc1
Completion: 60

Prompt: // lookup % inhibition apPOL 180' for C=CC1=C(C)c2cc3[nH]c(cc4nc(cc5[nH]c(cc1n2)c(C)c5CCC(=O)O)C(CCC(=O)O)=C4C)c(C)c3C=C
Completion: 80

Prompt: // lookup % inhibition apPOL 180' for O=C1CCCC2=C1C(c1ccccn1)C1=C(CCCC1=O)O2
Completion: 41

Prompt: // lookup % inhibition apPOL 180' for O=C(CSc1nc2ccccc2s1)Nc1ncc([N+](=O)[O-])s1
Completion: -23
